Values from ChEMBL document CHEMBL5113383

Measured HC50 at 0.5 h, listed per entry.
# assayProtocol: Hemolytic activity in human erythrocytes incubated for 30 mins
# Format: toxicity, cell-based, Erythrocyte
Positions of bridges follow the written chain, without caps; N, C: chain ends. Non-standard residues stand in square brackets, D forms with d. Residues, ends and D or L forms follow the SMILES beside them. S5 = C=CCCC[C@](C)(N)C(=O)O

CC(C)C[C@@H]1NC(=O)[C@H](CCCCN)NC(=O)[C@H](Cc2c[nH]c3ccccc23)NC(=O)[C@@](C)(NC(=O)[C@@H](N)CCCCN)CCC/C=C\CCC[C@@](C)(C(=O)N[C@@H](CCCCN)C(N)=O)NC1=O (H-K[S5]WKL[S5]K-NH2; staple (Z) 2-6)	< 1000 nM

Now for a further molecule.
Ask | What value of measured HC50 at 0.5 h is listed for CC(=O)N[C@@H](CCCCN)C(=O)N[C@@]1(C)CCC/C=C\CCC[C@@](C)(C(=O)N[C@@H](CCCCN)C(N)=O)NC(=O)[C@H](CC(C)C)NC(=O)[C@H](CCCCN)NC(=O)[C@H](Cc2c[nH]c3ccccc23)NC1=O (Ac-K[S5]WKL[S5]K-NH2; staple (Z) 2-6) ?
Reply | < 1000 nM
